Below is a list of entries, each paired with its recorded Ki value.
Target sequence: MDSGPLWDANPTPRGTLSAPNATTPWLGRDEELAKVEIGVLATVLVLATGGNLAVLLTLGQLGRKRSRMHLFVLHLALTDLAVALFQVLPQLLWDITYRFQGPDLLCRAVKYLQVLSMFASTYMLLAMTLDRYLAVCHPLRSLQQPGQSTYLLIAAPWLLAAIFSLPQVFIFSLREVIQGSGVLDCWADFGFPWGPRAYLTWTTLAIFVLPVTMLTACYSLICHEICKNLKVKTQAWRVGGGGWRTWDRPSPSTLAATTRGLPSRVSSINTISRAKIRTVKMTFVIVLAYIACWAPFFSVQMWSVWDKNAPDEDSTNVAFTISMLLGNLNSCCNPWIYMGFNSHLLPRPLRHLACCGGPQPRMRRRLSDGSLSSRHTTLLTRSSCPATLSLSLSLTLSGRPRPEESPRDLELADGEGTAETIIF
Where a name gives a salt, the structure may show the parent alone.

# example entries with known answers
molecule	Ki
COc1cccc(-c2nc3ccc(/C=C/CCN4CCOCC4)cc3c(=O)n2CC(=O)NC(C)C)c1 [EXAMPLE 10b]	10 to 100 nM
COc1cccc(-c2nc3ccc(OCCC4CCCCN4C)cc3c(=O)n2CC(=O)NC(C)C)c1 (stereo not drawn) [EXAMPLE 12a]	100 to 1000 nM
COc1ccc(CN(CCCN2CCCCC2)c2ccc3nc(-c4cccc(OC)c4)n(CC(=O)NC(C)C)c(=O)c3c2)cc1 [EXAMPLE 3r]	10 to 100 nM
COc1cccc(-c2nc3ccc(OCCCN4CCCCC4)cc3c(=O)n2CC(=O)NC(C)C)n1 [EXAMPLE 1h]	< 10 nM
COc1cccc(-c2nc3ccc(OCC4CCCN(C)C4)cc3c(=O)n2CC(=O)NC(C)C)c1 (stereo not drawn) [EXAMPLE 14a]	100 to 1000 nM
COc1cc(-c2nc3ccc(OCCCN4CCC(O)CC4)cc3c(=O)n2CC(=O)NC(C)C)ccc1F [EXAMPLE 2p]	< 10 nM

Ask: // returns reported Ki for input CCCNC(=O)Cn1c(-c2cccc(OC)c2)nc2ccc(OC[C@@H](C)CN3CCCCC3)cc2c1=O [EXAMPLE 4n]
Reply: < 10 nM

Ask: // returns reported Ki for input COc1cccc(-c2nc3ccc(NCCCN4CCCCC4)cc3c(=O)n2CC(=O)NC(C)C)c1 [EXAMPLE 13a]
Reply: 100 to 1000 nM

Ask: // returns reported Ki for input O=C(Cn1c(-c2ccccc2)nc2ccc(OCCCN3CCCCCC3)cc2c1=O)NCC1CC1 [EXAMPLE 4q]
Reply: 100 to 1000 nM

Ask: // returns reported Ki for input COc1cccc(-c2nc3ccc(CCCCN4CCCC4)cc3c(=O)n2CC(=O)NC(C)C)c1 [EXAMPLE 11b]
Reply: 10 to 100 nM

Ask: // returns reported Ki for input COc1cccc(-c2nc3ccc(-c4cccc(CN(C)C)n4)cc3c(=O)n2CC(=O)NC(C)C)c1 [EXAMPLE 6b]
Reply: 10 to 100 nM

Ask: // returns reported Ki for input CC(C)NC(=O)Cn1c(-c2cccc(Cl)c2)nc2ccc(OCCCN3CCCCC3)cc2c1=O [EXAMPLE 3a, hydrochloride]
Reply: < 10 nM

The values you see were collected from patent US7807686B2.
